These entries and their values trace back to patent US6512006B1.

Experimental details: Cellular toxicity in uninfected CEM cells (XTT)
Type: cell-based
Condition description: human, uninfected CEM cells (lymphocyte derived), cytotoxicity in 50% of uninfected CEM cells; read-out: TC50 (the source's name)
Property label: CC50 (µM)

[[record]]
compound = "CCCN(C1=C(O)CC(CCc2cccc(O)c2)(C2CCCC2)OC1=O)c1ccccc1 (stereo not shown)"
property_label = "CC50"
observed = 67

[[record]]
compound = "CCCC1(CCc2ccc(O)cc2)CC(O)=C(N(CC)c2cccc(NS(=O)(=O)c3ccc(C(F)(F)F)cn3)c2)C(=O)O1 (stereo not shown)"
property_label = "CC50"
observed = 113

[[record]]
compound = "CC(C)C1(CCc2ccc(O)cc2)CC(O)=C(N(CCC#N)c2ccccc2)C(=O)O1 (stereo not shown)"
property_label = "CC50"
observed = 320

[[record]]
compound = "CCCN(C1=C(O)CC(CCc2ccc(O)cc2)(C(C)C)OC1=O)c1cccc(NS(=O)(=O)c2ccc(C(F)(F)F)cn2)c1 (stereo not shown)"
property_label = "CC50"
observed = 84

[[record]]
compound = "CCCN(C1=C(O)CC(CCc2ccc(O)cc2)(C(C)C)OC1=O)c1ccccc1 (stereo not shown)"
property_label = "CC50"
observed = 200

[[record]]
compound = "CCN(C1=C(O)CC(CCc2ccccc2)(C(C)C)OC1=O)c1cccc(NS(=O)(=O)c2ccc(C(F)(F)F)cn2)c1 (stereo not shown)"
property_label = "CC50"
observed = 66

[[record]]
compound = "CCCN(C1=C(O)CC(CCc2ccccc2)(C(C)C)OC1=O)c1cccc(NS(=O)(=O)c2ccc(C(F)(F)F)cn2)c1 (stereo not shown)"
property_label = "CC50"
observed = 63

[[record]]
compound = "CCCN(C1=C(O)CC(CCc2ccccc2CO)(C(C)C)OC1=O)c1ccccc1 (stereo not shown)"
property_label = "CC50"
observed = 101

[[record]]
compound = "CCN(C1=C(O)CC(CCc2ccc(O)cc2)(C(C)C)OC1=O)c1cccc(NS(=O)(=O)c2ccc(C(F)(F)F)cn2)c1 (stereo not shown)"
property_label = "CC50"
observed = 133

[[record]]
compound = "CCCCN(C1=C(O)CC(CCc2ccc(O)cc2)(C(C)C)OC1=O)c1ccccc1 (stereo not shown)"
property_label = "CC50"
observed = 156


###

Listed molecules paired with reported melting point
Property label: melting point

[[record]]
molecule = "CCN(C1=C(O)CC(CCc2ccc(O)cc2)(C(C)C)OC1=O)c1cccc2ccccc12 (stereo not drawn)"
observed = "86 to 88 °C"

[[record]]
molecule = "CCCN(C1=C(O)CC(CCc2ccc(O)cc2)(C(C)C)OC1=O)c1cccc(C(=O)OC)c1 (stereo not drawn)"
observed = "96 to 98 °C"

[[record]]
molecule = "CCCCN(C1=C(O)CC(CCc2cccc(O)c2)(C2CCCC2)OC1=O)c1ccccc1 (stereo not drawn)"
observed = "64 to 66 °C"

[[record]]
molecule = "CCCN(C1=C(O)CC(CCc2ccc(N)cc2)(C(C)C)OC1=O)c1cccc(NS(=O)(=O)c2ccc(C(F)(F)F)cn2)c1 (stereo not drawn)"
observed = "170 to 172 °C"

[[record]]
molecule = "CC(C)N(C1=C(O)CC(CCc2ccc(O)cc2)(C(C)C)OC1=O)c1ccccc1 (stereo not drawn)"
observed = "75 to 77 °C"

[[record]]
molecule = "CCCN(C1=C(O)CC(CCc2ccc(O)cc2)(C2CC2)OC1=O)c1ccccc1 (stereo not drawn)"
observed = "74 to 75 °C"

[[record]]
molecule = "CC(C)C1(CCc2ccc(O)cc2)CC(O)=C(N(Cc2ccccc2)c2ccccc2)C(=O)O1 (stereo not drawn)"
observed = "75 to 77 °C"

[[record]]
molecule = "CC(C)C1(CCc2ccc(O)cc2)CC(O)=C(N(c2ccccc2)C2CCCC2)C(=O)O1 (stereo not drawn)"
observed = "83 to 85 °C"

[[record]]
molecule = "CCCCN(C1=C(O)CC(CCc2ccc(O)cc2)(C(C)C)OC1=O)c1ccccc1 (stereo not drawn) [15]"
observed = "69 to 71 °C"


###

Measured melting point of individual entries
Property label: melting point

[[record]]
molecule = "CCCN(C1=C(O)CC(CCc2ccc(O)cc2)(C(C)C)OC1=O)c1cccc(CO)c1 (stereo not shown) [32]"
property_label = "melting point"
observed = "71 to 73 °C"

[[record]]
molecule = "CCCN(C1=C(O)CC(C)(CCc2ccc(O)cc2)OC1=O)c1ccccc1 (stereo not shown)"
property_label = "melting point"
observed = "179 to 181 °C"

[[record]]
molecule = "CCCN(C1=C(O)CC(CCc2ccc(O)cc2)(C(C)C)OC1=O)c1cccc(NS(=O)(=O)c2ccc(C(F)(F)F)cn2)c1 (stereo not shown)"
property_label = "melting point"
observed = "107 to 110 °C"

[[record]]
molecule = "CC(C)CCN(C1=C(O)CC(CCc2ccc(O)cc2)(C(C)C)OC1=O)c1ccccc1 (stereo not shown)"
property_label = "melting point"
observed = "70 to 72 °C"

[[record]]
molecule = "CCCN(C1=C(O)CC(CCc2ccccc2CO)(C(C)C)OC1=O)c1ccccc1 (stereo not shown)"
property_label = "melting point"
observed = "58 to 60 °C"

[[record]]
molecule = "CCCN(C1=C(O)CC(CCc2ccc(O)cc2)(C(C)C)OC1=O)c1cccc(NS(=O)(=O)c2cccs2)c1 (stereo not shown)"
property_label = "melting point"
observed = "85 to 87 °C"

[[record]]
molecule = "CCCN(C1=C(O)CC(CCc2cccc(O)c2)(C2CCCC2)OC1=O)c1ccccc1 (stereo not shown)"
property_label = "melting point"
observed = "74 to 76 °C"

[[record]]
molecule = "CC(C)C1(CCc2ccc(O)cc2)CC(O)=C(N(c2ccccc2)c2cccc(O)c2)C(=O)O1 (stereo not shown)"
property_label = "melting point"
observed = "95 to 97 °C"

[[record]]
molecule = "CCCN(C1=C(O)CC(CCc2ccc(O)cc2)(C(C)C)OC1=O)c1cc(Cl)cc(Cl)c1 (stereo not shown)"
property_label = "melting point"
observed = "86 to 88 °C"

[[record]]
molecule = "CC(C)C1(CCc2ccc(O)cc2)CC(O)=C(N(c2ccccc2)C2CC2)C(=O)O1 (stereo not shown)"
property_label = "melting point"
observed = "102 to 104 °C"

[[record]]
molecule = "CCCN(C1=C(O)CC(CCc2ccc(O)cc2)(C2CCCC2)OC1=O)c1ccccc1 (stereo not shown)"
property_label = "melting point"
observed = "95 °C"

[[record]]
molecule = "CCCN(C1=C(O)CC(CCc2ccc3c(c2)OCO3)(C(C)C)OC1=O)c1ccccc1 (stereo not shown)"
property_label = "melting point"
observed = "93 to 95 °C"

[[record]]
molecule = "CC(C)C1(CCc2ccc(O)cc2)CC(O)=C(N(c2ccccc2)c2ccccc2)C(=O)O1 (stereo not shown)"
property_label = "melting point"
observed = "83 to 85 °C"

[[record]]
molecule = "CCCN(C1=C(O)CC(CCc2ccc(O)cc2)(C(C)C)OC1=O)c1cccc(CO)c1 (stereo not shown) [19]"
property_label = "melting point"
observed = "61 to 63 °C"

[[record]]
molecule = "CC(C)C1(CCc2ccc(O)cc2)CC(O)=C(N(c2ccccc2)C2CCCCC2)C(=O)O1 (stereo not shown)"
property_label = "melting point"
observed = "104 to 106 °C"

[[record]]
molecule = "CCCCN(C1=C(O)CC(CCc2ccc(O)cc2)(C(C)C)OC1=O)c1ccccc1 (stereo not shown) [Example 13]"
property_label = "melting point"
observed = "196 to 198 °C"

[[record]]
molecule = "CCCN(C1=C(O)CC(CCc2ccc(O)cc2)(C(C)C)OC1=O)c1ccccc1 (stereo not shown)"
property_label = "melting point"
observed = "171 to 173 °C"

[[record]]
molecule = "CCCCC1(CCc2ccc(O)cc2)CC(O)=C(N(CCC)c2ccccc2)C(=O)O1 (stereo not shown)"
property_label = "melting point"
observed = "58 to 60 °C"

[[record]]
molecule = "O=C1OC(CCc2cccc(O)c2)(C2CCCC2)CC(O)=C1N(c1ccccc1)c1ccccc1 (stereo not shown)"
property_label = "melting point"
observed = "90 to 92 °C"


###

System under test: Recombinant HIV-1 protease (Human immunodeficiency virus type 1 group M subtype B, UniProt P04585)
Construct: Recombinant HIV-1 protease (>96% purity); purchased Bachem Bioscience, Inc. (King of Prussia, Pa.)
Experimental details: HIV Protease Assay (Ki)
Format: biochemical
Condition description: Inhibition of HIV Protease Ki, pH 6.2, 37° C., 40 μM substrate III
Lab note: compare Ki with 0.2 nM, writing 1 if less and -1 if equal or more.

[[record]]
molecule = "CC(C)C1(CCc2ccc(O)cc2)CC(O)=C(N(CCC#N)c2ccccc2)C(=O)O1 (centres unmarked)"
label_value = -1

[[record]]
molecule = "CCN(C1=C(O)CC(CCc2ccc(O)cc2)(C(C)C)OC1=O)c1cccc(NS(=O)(=O)c2ccc(C(F)(F)F)cn2)c1 (centres unmarked)"
label_value = -1

[[record]]
molecule = "CCCN(C1=C(O)CC(CCc2ccc(O)cc2)(C(C)C)OC1=O)c1cccc(NS(=O)(=O)c2ccc(C(F)(F)F)cn2)c1 (centres unmarked) [Example 2]"
label_value = 1

[[record]]
molecule = "CCCN(C1=C(O)CC(CCc2cccc(O)c2)(C2CCCC2)OC1=O)c1ccccc1 (centres unmarked)"
label_value = -1

[[record]]
molecule = "CCCN(C1=C(O)CC(CCc2ccccc2CO)(C(C)C)OC1=O)c1ccccc1 (centres unmarked)"
label_value = -1

[[record]]
molecule = "CCN(C1=C(O)CC(CCc2ccccc2)(C(C)C)OC1=O)c1cccc(NS(=O)(=O)c2ccc(C(F)(F)F)cn2)c1 (centres unmarked)"
label_value = -1

[[record]]
molecule = "CCCN(C1=C(O)CC(CCc2ccc(O)cc2)(C(C)C)OC1=O)c1cccc(NS(=O)(=O)c2ccc(C(F)(F)F)cn2)c1 (centres unmarked) [Example 4]"
label_value = 1

[[record]]
molecule = "CCCN(C1=C(O)CC(CCc2ccc(O)cc2)(C(C)C)OC1=O)c1ccccc1 (centres unmarked)"
label_value = 1

[[record]]
molecule = "CCCC1(CCc2ccc(O)cc2)CC(O)=C(N(CC)c2cccc(NS(=O)(=O)c3ccc(C(F)(F)F)cn3)c2)C(=O)O1 (centres unmarked)"
label_value = 1

[[record]]
molecule = "CCCN(C1=C(O)CC(CCc2ccccc2)(C(C)C)OC1=O)c1cccc(NS(=O)(=O)c2ccc(C(F)(F)F)cn2)c1 (centres unmarked)"
label_value = 1

